molecular target: Complex I; assay: Assay A: Determination of Complex I mediated ROS-inhibition (CI); conditions: read-out: CI IC50; ROS generation by Complex I purified from bovine heart, Amplex Red/horse radish peroxidase readout, 8 point concentration-response
property: log10 of IC50 (log10 of the value in nM)

* CC(Nc1ccc2c(c1)/C(=C1\COCCN1)C(=O)N2C(C)C)c1cnccn1 (stereo not drawn) [Compound 57] | 1.86
* COCC(C)N1C(=O)/C(=C2/COCCN2)c2cc(N3CCCC3)ccc21 (stereo not drawn) [Compound 68] | 2.80
* COCC(C)Nc1ccc2c(c1)/C(=C1\COCCN1)C(=O)N2C1COC1 (stereo not drawn) [Compound 137] | 2.14
* COCC(C)Nc1ccc2c(c1)/C(=C1\COCCN1)C(=O)N2C1CCOCC1 (stereo not drawn) [Compound 99] | 2.65
* CC(Nc1ccc2c(c1)/C(=C1\COCCN1)C(=O)N2C(C)C)c1cccnc1 (stereo not drawn) [Compound 15] | 1.98
* CC(Nc1ccc2c(c1)/C(=C1\COCCN1)C(=O)N2C1CCOCC1)C1CCC1 (stereo not drawn) [Compound 148] | 1.59
* O=C1/C(=C2/COCCN2)c2cc(NC3CCCC3)ccc2N1C1CCOCC1 [Compound 60] | 2.39
* O=C1/C(=C2/COCCN2)c2cc(NCC3CCOCC3)ccc2N1C1CCOCC1 [Compound 81] | 2.11
* CC(C)Nc1ccc2c(c1)/C(=C1\COCCN1)C(=O)N2C1COC1 [Compound 135] | 1.91

###

test system: HT-22 cells; assay type: cell-based, mice; details: Mus musculus, HT-22, 16 h, read-out: HT22 IC50
pIC50: −log10 of the molar value.
Measured pIC50, listed per entry.
property: pIC50

• Nc1ccc2c(c1)/C(=C1/NCCN(C(=O)OCc3ccccc3)C1O)C(=O)N2C1CCNCC1 (stereo not shown) = 6.00
• CCOC(=O)N1CCC(N2C(=O)/C(=C3/COCCN3)c3cc(N4C(C)CCC4C)ccc32)CC1 (stereo not shown) = 7.42
• CC(C)Nc1ccc2c(c1)/C(=C1\COCCN1)C(=O)N2C1CCN(C(C)C)CC1 = 7.36
• CN1CCC(N2C(=O)/C(=C3/CCCN3)c3cc(N(C)C)ccc32)CC1 = 6.80

###

This listing pairs compounds with measured pIC50.
target: Complex I; assay: Assay A: Determination of Complex I mediated ROS-inhibition (CI); conditions: read-out: CI IC50; ROS generation by Complex I purified from bovine heart, Amplex Red/horse radish peroxidase readout, 8 point concentration-response
pIC50: −log10 of the molar value.
property: pIC50

- Nc1ccc2c(c1)/C(=C1\COCCN1)C(=O)N2C1CCOCC1 [Compound 35]: 7.08
- O=C1/C(=C2/COCCN2)c2cc(N3CCCCC3)ccc2N1C1CCOCC1 [Compound 86]: 7.16
- CC(C)Nc1ccc2c(c1)/C(=C1\COCCN1)C(=O)N2C(C)C [Compound 44]: 7.36
- CN1C(=O)/C(=C2/CCN(C(=O)OCc3ccccc3)CCN2)c2cc(N3CCCC3)ccc21 [Compound 152]: 6.32
- CN1C(=O)/C(=C2/COCCN2)c2cc(NC3CCC3)ccc21 [Compound 154]: 6.71

###

Catalogue of molecules with associated IC50
biological target: Complex I; experiment: Assay A: Determination of Complex I mediated ROS-inhibition (CI); details: read-out: CI IC50; ROS generation by Complex I purified from bovine heart, Amplex Red/horse radish peroxidase readout, 8 point concentration-response
property: IC50 (nM)

* CC(C)Nc1ccc2c(c1)/C(=C1\CC3(CN1)COC3)C(=O)N2C1CCOCC1 | 181
* CN(C)c1ccc2c(c1)C(=C1NCC3(CCCCC3)CN1)C(=O)N2C | 704
* CC(C)C(C)Nc1ccc2c(c1)/C(=C1\COCCN1)C(=O)N2C1COCCOC1 (stereo not drawn) | 162
* CN1C(=O)/C(=C2/CCN(C3CCOC3)CCN2)c2cc(N3CCCC3)ccc21 (stereo not drawn) | 264
* CC(C)CNc1ccc2c(c1)/C(=C1\COCCN1)C(=O)N2C(C)C | 367
* CC(C)Nc1ccc2c(c1)/C(=C1\COCCCN1)C(=O)N2C1CCOCC1 | 65
* CN1CCC/C1=C1/C(=O)N(C2CCOCC2)c2ccc(NC3CCC3)cc21 | 398
* CC(C)Nc1ccc2c(c1)/C(=C1\COCCN1)C(=O)N2C | 22
* CC(C)N1C(=O)/C(=C2/COCCN2)c2cc(NCc3cc[nH]n3)ccc21 | 46

###

target: Complex I; assay: Assay A: Determination of Complex I mediated ROS-inhibition (CI); settings: read-out: CI IC50; ROS generation by Complex I purified from bovine heart, Amplex Red/horse radish peroxidase readout, 8 point concentration-response
Hi! Could you tag entries with IC50 below 200 nM as criterion met, and those at or above as criterion not met? Much appreciated.

- CN1CCN/C(=C2\C(=O)N(C)c3ccc(N4CCCC4)cc32)CC1: criterion not met
- O=C1/C(=C2/COCCN2)c2cc(NCc3cc[nH]n3)ccc2N1C1CCOCC1: criterion met
- CC(C)N1C(=O)C(=C2CCOCC2)c2cc(NC3CCCC3)ccc21: criterion not met
- CC(C)Nc1ccc2c(c1)/C(=C1\CCCN1C)C(=O)N2C1CCOCC1: criterion met

###

biological target: Complex I; experiment: Assay A: Determination of Complex I mediated ROS-inhibition (CI); conditions: read-out: CI IC50; ROS generation by Complex I purified from bovine heart, Amplex Red/horse radish peroxidase readout, 8 point concentration-response
Binarize IC50 at 0.07 µM; below is fulfilled, at or above is not fulfilled.

• CC(C)Nc1ccc2c(c1)/C(=C1\COCCN1)C(=O)N2[C@H]1CCN(C2COC2)C1 = fulfilled
• CC(C)N1CCC2(CC1)CN/C(=C1\C(=O)N(C(C)C)c3ccc(N4C(C)CCC4C)cc31)CO2 (centres unmarked) = not fulfilled
• CC(C)N1C(=O)/C(=C2/COCCN2)c2cc(N3CCOCC3)ccc21 = not fulfilled
• CC(C)N1C(=O)C(=C2CCOCC2)c2cc(NC3CCC3)ccc21 = not fulfilled
• CC(C)N1C(=O)C(=C2CCOCC2)c2cc(N3CCCC3)ccc21 = not fulfilled
• CC1OCCC1Nc1ccc2c(c1)/C(=C1\COCCN1)C(=O)N2C1CCOCC1 (centres unmarked) = fulfilled
• CC(=O)N1CCN/C(=C2\C(=O)N(C(C)C)c3ccc(NC(C)C)cc32)C1 = not fulfilled

###

biological target: Complex I; assay: Assay A: Determination of Complex I mediated ROS-inhibition (CI); settings: read-out: CI IC50; ROS generation by Complex I purified from bovine heart, Amplex Red/horse radish peroxidase readout, 8 point concentration-response
pIC50: −log10 of the molar value.
Measured pIC50 values are reported for all entries that follow.
property: pIC50

* CC1CCCC1Nc1ccc2c(c1)/C(=C1\COCCN1)C(=O)N2C1CCOCC1 (stereo not drawn) [Compound 102] | 6.96
* O=C1/C(=C2/COCCN2)c2cc(NC3CCC3)ccc2N1C1CCOC1 (stereo not drawn) [Compound 14] | 7.00
* CC1OCCC1Nc1ccc2c(c1)/C(=C1\COCCN1)C(=O)N2C(C)C (stereo not drawn) [Compound 125] | 7.30
* CC(C)N1C(=O)/C(=C2/CCCN2C)c2cc(NC3CCC3)ccc21 [Compound 161] | 6.02
* CC1CCC(C)N1c1ccc2c(c1)/C(=C1\CCOCCN1)C(=O)N2C1CCOCC1 (stereo not drawn) [Compound 29] | 6.88
* O=C1/C(=C2/COCCN2)c2cc(NC3COC3)ccc2N1C1CCOCC1 [Compound 175] | 7.01
* CC(C)Nc1ccc2c(c1)/C(=C1\COCCN1)C(=O)N2C1CCOCC1 [Compound 3] | 7.11
* CC(C)Nc1ccc2c(c1)/C(=C1\CCCN1C)C(=O)N2C(C)C [Compound 115] | 7.10
* CC(Nc1ccc2c(c1)/C(=C1\COCCN1)C(=O)N2C1CCOCC1)C1CC1 (stereo not drawn) [Compound 20] | 7.14
* O=C1/C(=C2/COCCN2)c2cc(NC3CCOCC3)ccc2N1C1CCOC1 (stereo not drawn) [Compound 32] | 7.51
* CC(C)N1C(=O)/C(=C2/COCCN2)c2cc(NC3CCOCC3)ccc21 [Compound 36] | 6.82
* CC(Nc1ccc2c(c1)/C(=C1\COCCN1)C(=O)N2C(C)C)c1nccs1 (stereo not drawn) [Compound 144] | 7.31
* CN(C)c1ccc2c(c1)/C(=C1\CCCCN1)C(=O)N2C [Compound 62] | 7.09
* CC(C)N1C(=O)/C(=C2/COCCN2)c2cc(NCC3(C)COC3)ccc21 [Compound 127] | 7.09
* CNc1ccc2c(c1)/C(=C1\CCCN1)C(=O)N2C1CCOCC1 [Compound 43] | 7.96
* CN(C)c1ccc2c(c1)/C(=C1\CCN(C(=O)OCc3ccccc3)CCN1)C(=O)N2C [Compound 108] | 6.93
* COC1COCCC1Nc1ccc2c(c1)/C(=C1\COCCN1)C(=O)N2C1CCOCC1 (stereo not drawn) [Compound 149] | 6.79
* CN1CCC/C1=C1/C(=O)N(C2CCOCC2)c2ccc(NC3CCOC3)cc21 (stereo not drawn) [Compound 49] | 6.55
